Each recorded value in this set is attributed to ChEMBL document CHEMBL2146480.

experiment: Clearance in rat at 0.94 mg/kg, iv and 9.44 mg/kg, po; format: ADME, organism-based; settings: in vivo
measured-endpoint: clearance (mL/min/kg)
One number for each entry, in mL/min/kg.

Any idea what its clearance is? The compound is Cc1cc(C#N)ccc1-c1ccnc(NCc2n[nH]c(-c3ccccn3)c2Cl)c1 8.2

----------
assay: Half life in rat at 1.10 mg/kg, iv and 10.7 mg/kg, po; format: ADME, organism-based; conditions: in vivo
measured-endpoint: half-life (h)
Answers are plain numbers, in h.

Any idea what its half-life is? The compound is Cc1cc(C#N)ccc1-c1ccnc(NCc2n[nH]c3nc(N)ccc23)c1 2.5

----------
biological target: Human immunodeficiency virus type 1 reverse transcriptase (Human immunodeficiency virus 1)
# label = YES if IC50 < 6 nM else NO

Examples from the recorded data:
compound-structure-string	label-value
Cc1cc(C#N)ccc1-c1ccnc(NCc2cc(-c3ccccn3)[nH]n2)c1	NO
Cc1cc(C#N)ccc1-c1ccnc(NCc2n[nH]c3ncccc23)c1	YES
Cc1cc(C#N)ccc1-c1ccnc(NCc2n[nH]c(-c3ccccn3)c2Cl)c1	YES
Cc1cc(C#N)ccc1-c1ccnc(NCc2n[nH]c(-c3ccccc3)c2Cl)c1	YES

Now for another entry.
Please indicate whether the reported IC50 of Cc1cc(C#N)ccc1-c1ccnc(NCc2n[nH]c3nc(F)ccc23)c1 is strictly below 6 nM. YES

----------
biological target: Human immunodeficiency virus type 1 reverse transcriptase (Human immunodeficiency virus 1, UniProt Q72547, K103N); experiment: Inhibition of RNA-dependent DNA polymerase activity of N-terminal His6x-tagged HIV 1 reverse transcriptase K103N mutant expressed in Escherichia coli (DE3) rosetta cells preincubated for 30 mins by SPA assay
Provide the reported IC50 of each item.

Use the examples below as a reference point.
compound-structure-string	IC50
Cc1cc(C#N)ccc1-c1ccnc(NCc2n[nH]c3ncccc23)c1	10 nM
Cc1cc(C#N)ccc1-c1ccnc(NCc2n[nH]c(-c3ccccn3)c2Cl)c1	16 nM
Cc1cc(C#N)ccc1-c1ccnc(NCc2n[nH]c3nc(N)ccc23)c1	36 nM

Fill in IC50 for each of the 3 compounds listed.
1. Cc1cc(C#N)ccc1-c1ccnc(NCc2cc(-c3ccccn3)[nH]n2)c1
2. Cc1cc(C#N)ccc1-c1ccnc(NCc2n[nH]c3nc(F)ccc23)c1
3. Cc1cc(C#N)ccc1-c1ccnc(NCc2n[nH]c(-c3ccccc3)c2Cl)c1

1. 134 nM
2. 10 nM
3. 11 nM

----------
assay: Volume of distribution in rat at 1.10 mg/kg, iv and 10.7 mg/kg, po; type: ADME, organism-based; details: in vivo, 1.1 mg/kg
measured-endpoint: Vd (L/kg)
Numbers only, in L/kg.

Any idea what its Vd is? The compound is Cc1cc(C#N)ccc1-c1ccnc(NCc2n[nH]c3nc(N)ccc23)c1 1.26

----------
assay: Volume of distribution in rat at 0.94 mg/kg, iv and 9.44 mg/kg, po; format: ADME, organism-based; conditions: in vivo
measured-endpoint: Vd (L/kg)
Numbers only, in L/kg.

Any idea what its Vd is? The compound is Cc1cc(C#N)ccc1-c1ccnc(NCc2n[nH]c(-c3ccccn3)c2Cl)c1 1.1

----------
assay: Solubility of the compound in distilled water at pH 7.4; type: physicochemical
measured-endpoint: solubility

Use the examples below as a reference point.
compound-structure-string	solubility
Cc1cc(C#N)ccc1-c1ccnc(NCc2n[nH]c(-c3ccccn3)c2Cl)c1	1.1 µM
Cc1cc(C#N)ccc1-c1ccnc(NCc2n[nH]c3nc(N)ccc23)c1	0.34 µM
Cc1cc(C#N)ccc1-c1ccnc(NCc2cc(-c3ccccn3)[nH]n2)c1	0.71 µM
Cc1cc(C#N)ccc1-c1ccnc(NCc2n[nH]c3ncccc23)c1	3.7 µM
Cc1cc(C#N)ccc1-c1ccnc(NCc2n[nH]c3nc(F)ccc23)c1	1.8 µM

Then this compound:
Any idea what its solubility is? The compound is Cc1cc(C#N)ccc1-c1ccnc(NCc2n[nH]c(-c3ccccc3)c2Cl)c1 2.1 µM

----------
assay: AUC in rat 9.44 mg/kg, po; format: ADME, organism-based; parameters: dose 9.44 mg/kg, route oral; conditions: plasma
measured-endpoint: AUC

Any idea what its AUC is? The compound is Cc1cc(C#N)ccc1-c1ccnc(NCc2n[nH]c(-c3ccccn3)c2Cl)c1 67 µM·h

----------
test: Oral bioavailability in rat at 10.9 mg/kg; type: ADME, organism-based; conditions: in vivo
measured-endpoint: bioavailability (%)
Numbers only, in %.

Any idea what its bioavailability is? The molecule is Cc1cc(C#N)ccc1-c1ccnc(NCc2n[nH]c(-c3ccccc3)c2Cl)c1 71

----------
assay: Half life in rat at 0.94 mg/kg, iv and 9.44 mg/kg, po; assay type: ADME, organism-based; settings: in vivo
measured-endpoint: half-life (h)
Numbers only, in h.

Any idea what its half-life is? The compound is Cc1cc(C#N)ccc1-c1ccnc(NCc2n[nH]c(-c3ccccn3)c2Cl)c1 2

----------
test: Oral bioavailability in rat at 9.44 mg/kg; assay type: ADME, organism-based; conditions: in vivo
measured-endpoint: bioavailability (%)
One number for each entry, in %.

Any idea what its bioavailability is? The compound is Cc1cc(C#N)ccc1-c1ccnc(NCc2n[nH]c(-c3ccccn3)c2Cl)c1 127

----------
assay: Clearance in rat at 1.19 mg/kg, iv and 10.9 mg/kg, po; type: ADME, organism-based; details: in vivo
measured-endpoint: clearance (mL/min/kg)
One number for each entry, in mL/min/kg.

Any idea what its clearance is? The molecule is Cc1cc(C#N)ccc1-c1ccnc(NCc2n[nH]c(-c3ccccc3)c2Cl)c1 8.7

----------
assay: AUC in rat at 10.7 mg/kg, po; assay type: ADME, organism-based; design: dose 10.7 mg/kg, route oral; details: plasma
measured-endpoint: AUC (µM·h)
One number for each entry, in µM·h.

Any idea what its AUC is? The compound is Cc1cc(C#N)ccc1-c1ccnc(NCc2n[nH]c3nc(N)ccc23)c1 20

----------
biological target: Human immunodeficiency virus type 1 reverse transcriptase (Human immunodeficiency virus 1, UniProt Q72547, Y181C); assay: Inhibition of RNA-dependent DNA polymerase activity of N-terminal His6x-tagged HIV 1 reverse transcriptase Y181C mutant expressed in Escherichia coli (DE3) rosetta cells preincubated for 30 mins by SPA assay
# label = Y if IC50 < 8 nM else N

compound-structure-string	label-value
Cc1cc(C#N)ccc1-c1ccnc(NCc2n[nH]c(-c3ccccc3)c2Cl)c1	Y

Please indicate whether the reported IC50 of Cc1cc(C#N)ccc1-c1ccnc(NCc2cc(-c3ccccn3)[nH]n2)c1 is strictly below 8 nM. N

Please indicate whether the reported IC50 of Cc1cc(C#N)ccc1-c1ccnc(NCc2n[nH]c3ncccc23)c1 is strictly below 8 nM. Y

Please indicate whether the reported IC50 of Cc1cc(C#N)ccc1-c1ccnc(NCc2n[nH]c3nc(N)ccc23)c1 is strictly below 8 nM. N

Please indicate whether the reported IC50 of Cc1cc(C#N)ccc1-c1ccnc(NCc2n[nH]c3nc(F)ccc23)c1 is strictly below 8 nM. Y

----------
assay: Clearance in rat at 1.10 mg/kg, iv and 10.7 mg/kg, po; assay type: ADME, organism-based; settings: in vivo, 1.1 mg/kg
measured-endpoint: clearance (mL/min/kg)
Give bare numbers, in mL/min/kg.

Any idea what its clearance is? The molecule is Cc1cc(C#N)ccc1-c1ccnc(NCc2n[nH]c3nc(N)ccc23)c1 14

----------
Provide the reported solubility of each item.
assay: Solubility of the compound in distilled water at pH 2.1; format: physicochemical
Give bare numbers, in µM.

compound-structure-string	measured-endpoint	recorded-number
Cc1cc(C#N)ccc1-c1ccnc(NCc2n[nH]c(-c3ccccn3)c2Cl)c1	solubility	132

Then this molecule:
Any idea what its solubility is? The molecule is Cc1cc(C#N)ccc1-c1ccnc(NCc2n[nH]c(-c3ccccc3)c2Cl)c1 45

----------
experiment: Solubility of the compound in distilled water at pH 2.1; assay type: physicochemical
Provide the reported solubility of each item.

Fill in solubility for each of the 3 compounds listed.
1. Cc1cc(C#N)ccc1-c1ccnc(NCc2n[nH]c3nc(N)ccc23)c1
2. Cc1cc(C#N)ccc1-c1ccnc(NCc2n[nH]c3ncccc23)c1
3. Cc1cc(C#N)ccc1-c1ccnc(NCc2cc(-c3ccccn3)[nH]n2)c1

> 884 µM
> 881 µM
> 545 µM
